# ASSAY OVERVIEW: Plasma pharmacokinetics of IBI351 parent drug (HPLC-MS/MS) after a single oral dose of [14C]IBI351
# Format: in vivo, human
# STATED CONDITIONS: male, human; IBI351 parent drug in plasma; single oral 600 mg/150 μCi; n=6; mean±SD
OBSERVED PROPERTY: half-life (h)
Express the result in h but write the number alone.

Enquiry: Reported half-life for C=CC(=O)N1CCN2c3c(c(=O)n(-c4c(C)ccnc4C(C)C)c4nc(-c5c(O)cccc5F)c(Cl)cc34)N(C)C(=O)C2C1 (stereo not shown) : what is it?
Return: 17.4

----------
# ASSAY OVERVIEW: Plasma pharmacokinetics of IBI351 parent drug (HPLC-MS/MS) after a single oral dose of [14C]IBI351
# Format: in vivo, human
# STATED CONDITIONS: male, human, plasma; single oral 600 mg/150 μCi; read-out: renal clearance (converted)
OBSERVED PROPERTY: CL renal (mL/min)
Express the result in mL/min but write the number alone.

Enquiry: Reported CL renal for C=CC(=O)N1CCN2c3c(c(=O)n(-c4c(C)ccnc4C(C)C)c4nc(-c5c(O)cccc5F)c(Cl)cc34)N(C)C(=O)C2C1 (stereo not shown) : what is it?
Return: 30.3

----------
# ASSAY OVERVIEW: Radioactive metabolite profiling in pooled plasma, urine and feces
# Format: in vivo, human
# STATED CONDITIONS: sum of feces 0–192 h and urine 0–96 h
Listing: Feces+urine % of dose of selected compounds

{"columns": ["COMPOUND", "OBSERVED PROPERTY", "MEASURED RESULT"],
 "data": [
  ["CCC(=O)N1CCN2c3c(c(=O)n(-c4c(C)ccnc4C(C)C)c4nc(-c5c(O)cccc5F)c(Cl)cc34)N(C)C(=O)C2C1 (centres unmarked) [M618]", "Feces+urine % of dose", "0.35 % of dose"]
]}

Enquiry: Reported Feces+urine % of dose for Cc1ccnc(C(C)C)c1-n1c(=O)c2c(c3cc(Cl)c(-c4c(O)cccc4F)nc31)N1CCN(C(=O)CCSCC(N)C(=O)O)CC1C(=O)N2C (centres unmarked) [M737] : what is it?
Return: 45.36 % of dose

Enquiry: Quick one: Cc1ccnc(C(C)C)c1-n1c(=O)c2c(c3cc(Cl)c(-c4c(O)cccc4F)nc31)N1CCN(C(=O)C(O)CO)CC1C(=O)N2C (centres unmarked) [M650]
Return: 2.70 % of dose

Enquiry: Quick one: C=CC(=O)N1CCN2c3c(c(=O)n(-c4c(C)ccnc4C(C)C)c4nc(-c5c(O)cccc5F)c(Cl)cc34)N(C)C(=O)C2C1 (centres unmarked) [IBI351]
Return: 10.87 % of dose

Enquiry: Quick one: CC(=O)NC(CSCCC(=O)N1CCN2c3c(c(=O)n(-c4c(C)ccnc4C(C)C)c4nc(-c5c(O)cccc5F)c(Cl)cc34)N(C)C(=O)C2C1)C(=O)O (centres unmarked) [M779]
Return: 2.70 % of dose

----------
# ASSAY OVERVIEW: Plasma pharmacokinetics of IBI351 parent drug (HPLC-MS/MS) after a single oral dose of [14C]IBI351
# Format: in vivo, human
# STATED CONDITIONS: male, human, oral, 600 mg; IBI351 parent drug in plasma; read-out: mean Cmax
# Description: This was a single-center, single-dose, open-trial study involving six healthy Chinese male subjects. They received a single dose of 600 mg/150 μCi [^14C]IBI351 on day 1 after fasting for at least 10 h. […] The endpoint of blood analysis was a plasma radioactivity concentration less than 1/8 of the baseline plasma value. […] Whole blood aliquots were collected for radioactivity measurement, and blood samples were centrifuged (1500 [± 10] g, 4 ℃, 10 min) for metabolite identification. […]
OBSERVED PROPERTY: Cmax

Enquiry: Reported Cmax for C=CC(=O)N1CCN2c3c(c(=O)n(-c4c(C)ccnc4C(C)C)c4nc(-c5c(O)cccc5F)c(Cl)cc34)N(C)C(=O)C2C1 (stereo not shown) : what is it?
Return: 3900 ng/mL

----------
# ASSAY OVERVIEW: Radioactive metabolite profiling in pooled plasma, urine and feces
# Type: in vivo, human
# STATED CONDITIONS: pooled feces 0–192 h
Listing: Feces (0–192 h) % of dose of selected compounds

// below: answered compounds
{"columns": ["COMPOUND", "Feces (0–192 h) % of dose"],
 "data": [
  ["Cc1ccnc(C(C)C)c1-n1c(=O)c2c(c3cc(Cl)c(-c4c(O)cccc4F)nc31)N1CCN(C(=O)C(O)CO)CC1C(=O)N2C (stereo not shown) [M650]", "2.47 % of dose"],
  ["C=CC(=O)N1CCN2c3c(c(=O)n(-c4c(C)ccnc4C(C)C)c4nc(-c5c(O)cccc5F)c(Cl)cc34)N(C)C(=O)C2C1 (stereo not shown) [IBI351]", "9.71 % of dose"],
  ["Cc1ccnc(C(C)C)c1-n1c(=O)c2c(c3cc(Cl)c(-c4c(O)cccc4F)nc31)N1CCN(C(=O)CCSCC(N)C(=O)O)CC1C(=O)N2C (stereo not shown) [M737]", "39.87 % of dose"]
]}

Next compound, Feces (0–192 h) % of dose to be filled in.
Enquiry: Reported Feces (0–192 h) % of dose for CC(=O)NC(CSCCC(=O)N1CCN2c3c(c(=O)n(-c4c(C)ccnc4C(C)C)c4nc(-c5c(O)cccc5F)c(Cl)cc34)N(C)C(=O)C2C1)C(=O)O (stereo not shown) [M779] : what is it?
Return: 2.59 % of dose

----------
# ASSAY OVERVIEW: Plasma pharmacokinetics of IBI351 parent drug (HPLC-MS/MS) after a single oral dose of [14C]IBI351
# Format: in vivo, human
# STATED CONDITIONS: male, human; IBI351 parent drug in plasma; single oral 600 mg/150 μCi; n=6; mean±SD; read-out: MRT0–last
OBSERVED PROPERTY: MRT last (h)
Express the result in h but write the number alone.

Enquiry: Reported MRT last for C=CC(=O)N1CCN2c3c(c(=O)n(-c4c(C)ccnc4C(C)C)c4nc(-c5c(O)cccc5F)c(Cl)cc34)N(C)C(=O)C2C1 (stereo not shown) : what is it?
Return: 8.24

----------
# ASSAY OVERVIEW: Plasma pharmacokinetics of IBI351 parent drug (HPLC-MS/MS) after a single oral dose of [14C]IBI351
# Type: in vivo, human
# STATED CONDITIONS: male, human; IBI351 parent drug in plasma; single oral 600 mg/150 μCi, fasted, n=6; median (min, max)
OBSERVED PROPERTY: Tmax (h)
Express the result in h but write the number alone.

Enquiry: Reported Tmax for C=CC(=O)N1CCN2c3c(c(=O)n(-c4c(C)ccnc4C(C)C)c4nc(-c5c(O)cccc5F)c(Cl)cc34)N(C)C(=O)C2C1 (stereo not shown) : what is it?
Return: 1

----------
Listing: Plasma (0–144 h) Metabolite/parent drug (%) of selected compounds
# ASSAY OVERVIEW: Radioactive metabolite profiling in pooled plasma, urine and feces
# Type: in vivo, human
# STATED CONDITIONS: pooled plasma 0–144 h; relative to the parent drug
Express the result in % but write the number alone.

// below: answered compounds
{"columns": ["COMPOUND", "MEASURED RESULT"],
 "data": [
  ["Cc1ccnc(C(C)C)c1-n1c(=O)c2c(c3cc(Cl)c(-c4c(O)cccc4F)nc31)N1CCN(C(=O)CCSCC(N)C(=O)O)CC1C(=O)N2C (centres unmarked) [M737]", 135.90],
  ["Cc1ccnc(C(C)C)c1-n1c(=O)c2c(c3cc(Cl)c(-c4c(O)cccc4F)nc31)N1CCN(C(=O)C(O)CO)CC1C(=O)N2C (centres unmarked) [M650]", 5.95],
  ["C=CC(=O)N1CCN2c3c(c(=O)n(-c4c(C)ccnc4C(C)C)c4nc(-c5c(O)cccc5F)c(Cl)cc34)N(C)C(=O)C2C1 (centres unmarked) [IBI351]", 100.00]
]}

Enquiry: Reported Plasma (0–144 h) Metabolite/parent drug (%) for CC(=O)NC(CSCCC(=O)N1CCN2c3c(c(=O)n(-c4c(C)ccnc4C(C)C)c4nc(-c5c(O)cccc5F)c(Cl)cc34)N(C)C(=O)C2C1)C(=O)O (centres unmarked) [M779] : what is it?
Return: 1.10

Enquiry: Quick one: CCC(=O)N1CCN2c3c(c(=O)n(-c4c(C)ccnc4C(C)C)c4nc(-c5c(O)cccc5F)c(Cl)cc34)N(C)C(=O)C2C1 (centres unmarked) [M618]
Return: 1.98

----------
# ASSAY OVERVIEW: Radioactive metabolite profiling in pooled plasma, urine and feces
# Assay type: in vivo, human
# STATED CONDITIONS: pooled plasma 0–144 h
Listing: Plasma (0–144 h) % of AUC (share of total plasma radioactivity exposure) of selected compounds

// below: answered compounds
{"columns": ["COMPOUND", "MEASURED RESULT"],
 "data": [
  ["Cc1ccnc(C(C)C)c1-n1c(=O)c2c(c3cc(Cl)c(-c4c(O)cccc4F)nc31)N1CCN(C(=O)CCSCC(N)C(=O)O)CC1C(=O)N2C (stereo not shown)", "6.17 % of AUC"],
  ["CCC(=O)N1CCN2c3c(c(=O)n(-c4c(C)ccnc4C(C)C)c4nc(-c5c(O)cccc5F)c(Cl)cc34)N(C)C(=O)C2C1 (stereo not shown)", "0.09 % of AUC"],
  ["C=CC(=O)N1CCN2c3c(c(=O)n(-c4c(C)ccnc4C(C)C)c4nc(-c5c(O)cccc5F)c(Cl)cc34)N(C)C(=O)C2C1 (stereo not shown)", "4.54 % of AUC"]
]}

Enquiry: Reported Plasma (0–144 h) % of AUC (share of total plasma radioactivity exposure) for CC(=O)NC(CSCCC(=O)N1CCN2c3c(c(=O)n(-c4c(C)ccnc4C(C)C)c4nc(-c5c(O)cccc5F)c(Cl)cc34)N(C)C(=O)C2C1)C(=O)O (stereo not shown) : what is it?
Return: 0.05 % of AUC
